Experimental Target: Abf1 (UniProt P14164)
Sequence: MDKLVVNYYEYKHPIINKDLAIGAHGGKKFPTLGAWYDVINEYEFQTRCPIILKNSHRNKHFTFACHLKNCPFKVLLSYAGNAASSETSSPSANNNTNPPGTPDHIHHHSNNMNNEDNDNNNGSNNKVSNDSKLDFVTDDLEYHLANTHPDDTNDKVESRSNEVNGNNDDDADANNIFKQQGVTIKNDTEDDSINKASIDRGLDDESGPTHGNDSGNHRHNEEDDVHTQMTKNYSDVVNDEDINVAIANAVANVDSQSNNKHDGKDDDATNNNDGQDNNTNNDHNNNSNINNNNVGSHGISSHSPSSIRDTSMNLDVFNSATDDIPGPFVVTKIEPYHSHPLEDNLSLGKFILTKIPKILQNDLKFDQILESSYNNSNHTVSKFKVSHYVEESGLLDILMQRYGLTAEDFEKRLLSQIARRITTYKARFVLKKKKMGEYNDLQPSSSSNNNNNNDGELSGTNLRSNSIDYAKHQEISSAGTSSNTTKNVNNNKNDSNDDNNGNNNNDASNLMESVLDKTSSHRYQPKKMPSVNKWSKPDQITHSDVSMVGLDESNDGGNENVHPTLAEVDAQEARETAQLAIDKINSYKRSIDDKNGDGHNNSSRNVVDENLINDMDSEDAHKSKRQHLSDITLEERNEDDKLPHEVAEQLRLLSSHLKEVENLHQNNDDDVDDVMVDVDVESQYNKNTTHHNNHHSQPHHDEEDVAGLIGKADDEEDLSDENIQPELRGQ
Assay Comment: PBM E-score (8-mer binding enrichment) (E-score (-0.5 to 0.5)); higher = stronger / more preferred TF binding
Reported Conditions: protein concentration: 200 nM; construct: GST-full length
In all, about 33,000 sequences were measured (“E-score (-0.5 to 0.5)”: median about -0.015, highest 2% from about 0.3 on). This excerpt belongs to a sample that is enriched for the highest values.
For each of the sequences below, state its PBM E-score.
Answers are plain numbers.

Example cases with answers are listed next.
[[record]]
sequence_content = "CCCATTTC"
experimental_target = "Abf1 (UniProt P14164)"
observation_type = "PBM E-score"
recorded_measurement = -0.182

[[record]]
sequence_content = "CTCGTGAC"
experimental_target = "Abf1 (UniProt P14164)"
observation_type = "PBM E-score"
recorded_measurement = 0.344


Lab note: each sequence below needs its PBM E-score filled in.
1. GAAATTCC
2. GAACACAA
3. AGAAACGC

## Output
1. -0.102
2. -0.0576
3. -0.132

====

For each of the sequences below, state its PBM E-score.
Experimental Target: Abf1 (UniProt P14164)
Sequence: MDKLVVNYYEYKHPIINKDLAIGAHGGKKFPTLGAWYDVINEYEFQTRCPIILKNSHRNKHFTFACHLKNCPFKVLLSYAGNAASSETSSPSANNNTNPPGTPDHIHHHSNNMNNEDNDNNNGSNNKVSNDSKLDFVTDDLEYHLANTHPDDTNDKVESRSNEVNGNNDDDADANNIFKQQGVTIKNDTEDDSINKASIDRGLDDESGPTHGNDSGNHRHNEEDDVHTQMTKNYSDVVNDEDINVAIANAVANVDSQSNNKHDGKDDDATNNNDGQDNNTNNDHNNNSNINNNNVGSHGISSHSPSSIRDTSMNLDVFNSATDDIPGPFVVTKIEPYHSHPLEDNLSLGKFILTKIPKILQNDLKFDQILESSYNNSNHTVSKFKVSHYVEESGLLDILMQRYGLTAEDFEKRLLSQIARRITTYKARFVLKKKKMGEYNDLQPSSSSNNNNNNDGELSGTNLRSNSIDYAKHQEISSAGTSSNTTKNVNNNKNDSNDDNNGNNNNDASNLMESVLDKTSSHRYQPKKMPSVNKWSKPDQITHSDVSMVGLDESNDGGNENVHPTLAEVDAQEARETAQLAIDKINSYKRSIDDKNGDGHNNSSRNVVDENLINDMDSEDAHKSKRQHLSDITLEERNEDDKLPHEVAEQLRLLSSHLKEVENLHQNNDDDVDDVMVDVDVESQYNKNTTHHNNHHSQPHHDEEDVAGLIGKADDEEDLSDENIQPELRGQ
Assay Comment: PBM E-score (8-mer binding enrichment) (E-score (-0.5 to 0.5)); higher = stronger / more preferred TF binding
Reported Conditions: protein concentration: 200 nM; construct: GST-full length
Whole data set: some 33,000 sequences, median “E-score (-0.5 to 0.5)” near -0.015, cut for the highest 2% near 0.3. Many of the other results were omitted from the sample, so the highest values are more common in it than they were.

[[record]]
sequence_content = "GGTAGCTA"
experimental_target = "Abf1 (UniProt P14164)"
recorded_measurement = -0.16

[[record]]
sequence_content = "GCAACTCC"
experimental_target = "Abf1 (UniProt P14164)"
recorded_measurement = -0.257

[[record]]
sequence_content = "ATATAAAT"
experimental_target = "Abf1 (UniProt P14164)"
recorded_measurement = 0.3

[[record]]
sequence_content = "CTGCCCTA"
experimental_target = "Abf1 (UniProt P14164)"
recorded_measurement = -0.132

[[record]]
sequence_content = "GATTGGGA"
experimental_target = "Abf1 (UniProt P14164)"
recorded_measurement = -0.197

[[record]]
sequence_content = "ATTTAGCA"
experimental_target = "Abf1 (UniProt P14164)"
recorded_measurement = 0.193

[[record]]
sequence_content = "CGTGCACG"
experimental_target = "Abf1 (UniProt P14164)"
recorded_measurement = 0.419

[[record]]
sequence_content = "CACGGACG"
experimental_target = "Abf1 (UniProt P14164)"
recorded_measurement = 0.337


Lab note: each sequence below needs its PBM E-score filled in.
1. AGTATGAA
2. ATAAATAA
3. CGTGCAAC

## Output
0.135
0.246
0.247

====

Experimental Target: Abf1 (UniProt P14164)
Sequence: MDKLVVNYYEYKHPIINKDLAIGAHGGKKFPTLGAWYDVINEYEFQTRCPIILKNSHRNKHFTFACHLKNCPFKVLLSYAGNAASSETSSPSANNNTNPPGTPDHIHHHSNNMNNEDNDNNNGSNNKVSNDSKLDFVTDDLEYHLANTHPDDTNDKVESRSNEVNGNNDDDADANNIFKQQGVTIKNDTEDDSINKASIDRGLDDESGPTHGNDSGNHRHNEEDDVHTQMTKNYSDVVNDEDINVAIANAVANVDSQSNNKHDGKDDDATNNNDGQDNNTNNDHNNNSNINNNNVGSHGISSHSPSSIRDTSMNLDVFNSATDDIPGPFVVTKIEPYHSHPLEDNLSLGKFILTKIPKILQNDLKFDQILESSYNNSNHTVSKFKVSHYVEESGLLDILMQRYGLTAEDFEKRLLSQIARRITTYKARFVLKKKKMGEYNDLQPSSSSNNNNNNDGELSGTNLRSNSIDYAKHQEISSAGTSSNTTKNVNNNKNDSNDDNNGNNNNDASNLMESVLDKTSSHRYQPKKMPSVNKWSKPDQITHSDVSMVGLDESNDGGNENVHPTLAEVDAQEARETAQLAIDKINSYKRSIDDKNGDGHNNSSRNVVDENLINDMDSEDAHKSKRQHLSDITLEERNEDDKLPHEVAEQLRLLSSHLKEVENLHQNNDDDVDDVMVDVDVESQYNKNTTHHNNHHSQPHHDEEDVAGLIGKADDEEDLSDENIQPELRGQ
Assay Comment: PBM E-score (8-mer binding enrichment) (E-score (-0.5 to 0.5)); higher = stronger / more preferred TF binding
Reported Conditions: protein concentration: 200 nM; construct: GST-full length
In all, about 33,000 sequences were measured (“E-score (-0.5 to 0.5)”: median about -0.015, highest 2% from about 0.3 on). Only a selection was taken, and the highest values are over-represented in it overall.
For each of the sequences below, state its PBM E-score.
Answers are plain numbers.

[[record]]
sequence_content = "CATCCATA"
recorded_measurement = 0.0978


Lab note: each sequence below needs its PBM E-score filled in.
1. ATCATTCA
2. ACGTACAT
3. ATGATTTA
4. GTCTCAAA
5. AGGATTGG
6. ACCTTTAC
7. GAACGCGA
8. GCACACAA

## Output
1: 0.278; 2: 0.244; 3: 0.296; 4: 0.161; 5: -0.0614; 6: -0.0849; 7: -0.146; 8: -0.00644

Lab note: each sequence below needs its PBM E-score filled in.
1. CATATCAA
2. CTAGGAGA
3. ATCATTCG
4. GGGCAGCA
5. CTGTCATC
6. TCACACGA
7. AGTTGAGG
8. ACGTACGT

## Output
1: 0.222; 2: -0.236; 3: 0.332; 4: -0.256; 5: 0.108; 6: 0.297; 7: -0.116; 8: 0.335

Lab note: each sequence below needs its PBM E-score filled in.
1. CATATCAC
2. AGGTACGA
3. AATATCGT
4. ACGTACGC
5. CTAATGCC
6. GCACACGA

## Output
[0.389, 0.0832, 0.398, 0.114, -0.208, 0.303]
